- assayInfo: self-splicing fitness, log relative to wild type (ln ratio); higher = more splicing; Tetrahymena group I intron in knt gene, E. coli kanamycin selection, DiMSum; sequences stand for … in CUCUCU…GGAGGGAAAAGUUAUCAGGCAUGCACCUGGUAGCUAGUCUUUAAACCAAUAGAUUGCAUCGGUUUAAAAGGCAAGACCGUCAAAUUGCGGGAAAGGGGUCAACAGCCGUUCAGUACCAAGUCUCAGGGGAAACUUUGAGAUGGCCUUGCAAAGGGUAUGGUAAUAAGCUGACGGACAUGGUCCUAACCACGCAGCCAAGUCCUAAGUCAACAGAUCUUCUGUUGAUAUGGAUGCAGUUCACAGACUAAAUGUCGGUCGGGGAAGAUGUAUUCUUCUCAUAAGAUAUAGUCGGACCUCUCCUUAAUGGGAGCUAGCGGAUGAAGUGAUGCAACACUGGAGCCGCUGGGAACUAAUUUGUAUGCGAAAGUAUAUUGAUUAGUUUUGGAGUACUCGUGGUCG;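 also: selection with 25 µg/mL kanamycin versus none on LB agar overnight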
- conditionParameters: 37 °C
Overview of recorded self-splicing fitness (ln) for various sequences
Just the number.

Examples with their reported self-splicing fitness (ln) follow.
>>> print(df.to_string())
        residuesequence  reportedmeasurement
0  AAGCAGCAAUAUUACGCCUG                -1.58
1  GGAGAGCAAUAUUACGUGCG                -2.06

Consider the sequence shown here: CGAAAGCAAUAUUACGCGCA What is its recorded self-splicing fitness (ln)?
-0.435

# repeat for UGAAAGCAAUAUUACGAUCA
-0.381

Input AGGUAGCAAUAUUACGACUU
-0.0309

ACGCAGCAAUAUUACGCUUA ?
-0.286
